Source listed as ChEMBL document CHEMBL1201862.

Test system: UO-31
ASSAY_COMMENT: NCI tumour cell line growth inhibition, 48 h
The source made the active and inactive calls. Cut-off read from the data, not from the text of the source: active = GI50 up to about 1.1 µM and inactive = higher.
Respond with a class label; see Yes (active), No (inactive)

Please review the following examples before continuing.
COMPOUND	TGT	ANSWER_LABEL
O=C(Cc1ccccc1)Nc1nc2ccc(Cl)cc2c2nc(-c3ccco3)nn12	UO-31	No
CSS(C)(=O)=O	UO-31	No
COc1cc(C/C=C/c2ccccc2)c(OC)cc1O [VIOLASTYRENE]	UO-31	No
N#C/C(=C\c1cccc(O)c1)C(N)=O	UO-31	No

Okay, next one:
GET /call?item= `CC1=CC2(C)C=C[C@@H]1C(=O)[C@@]1(C)CC[C@@](O)(C(C)C)[C@H]1CC2` returns the recorded outcome of this test. No

====

Tested on: UO-31
ASSAY_COMMENT: NCI tumour cell line growth inhibition, 48 h
Activity calls are given as the source filed them. Rule as the data show it: active = GI50 up to about 1.1 µM and inactive = higher.
Entry note: the call must match one of class 1 = active, class 0 = inactive

MOLECULE	ANSWER_LABEL
O=C(/C=C/c1ccccc1)NNC(=O)c1c(Cl)c(Cl)c(Cl)c(Cl)c1-c1nc2ccccc2[nH]1	class 0

# outcome recorded in this test, key = `CN(C)c1ccc(/C=C2\Oc3ccccc3C2=O)cc1` class 0

And the next one, O=C1CC2(CCC(O)(c3cccc4ccccc34)C(C(=O)c3cccc4ccccc34)C2)C(=O)c2ccccc2N1 (centres undefined) ? class 0

Please give the result for COS(=O)CCOC(=O)c1ccccc1SSc1ccccc1C(=O)OCCS(=O)OC (centres undefined) too. class 0

Let us now turn to `CS(=O)(=O)OCCCNCCCOS(C)(=O)=O` class 0

Consider next the molecule `Nc1nc(N)nc(CC(=O)O)n1` in the same way. class 0

Do the same for `Oc1c(N2CCOCC2)cc(-c2cc(N3CCOCC3)c(O)c3ccccc23)c2ccccc12` please class 0

Please answer likewise for CC(CN1CCN(CC(C)Nc2ccnc3cc(Cl)ccc23)CC1)Nc1ccnc2cc(Cl)ccc12 (centres undefined) class 0

Same read-out for `Sc1ccccc1S` ? class 0

====

Test system: UO-31
ASSAY_COMMENT: NCI tumour cell line growth inhibition, 48 h
Calls of active or inactive are those of the source. Rule as the data show it: active = GI50 up to about 1.1 µM and inactive = higher.
QUANTITY_NAME: GI50

COMPOUND	RESULT
CCOC(=O)CCc1c(C)c2c(OC)cc(OC)cc2oc1=O	65.9 µM (inactive)
CC(C)CC1[C@@H](OCc2ccccc2)COS(=O)(=O)N1Cc1ccccc1 (stereo not given in full)	27.2 µM (inactive)
Clc1ccc(OCc2nnc3sc(-c4ccc(-c5ccc(Cl)cc5Cl)o4)nn23)c(Cl)c1	25.8 µM (inactive)
O=S(=O)(O)c1ccc2cc(/N=N\c3cc(S(=O)(=O)O)c4cccnc4c3O)ccc2c1	> 100 µM (inactive)
Cc1ccc2c(c1)C(=O)C1(C2)Cc2ccc(C)cc2C1=O	> 100 µM (inactive)
C/C=C(\C)C(=O)OC1C2C(C)=CC(=O)C(O)C2(C)C2C3(O)OCC24C1OC(=O)C(OC(C)=O)C4C(C)C3O (stereo not given)	0.195 µM (active)
COc1cc(-c2cc(O)c3cc4c(cc3n2)OCO4)cc(OC)c1OC	> 100 µM (inactive)
OC1C2CN3CCN(C2)CC1(c1ccccc1)C3 (stereo not given)	> 100 µM (inactive)
COc1ccc(C(=O)C(C(=O)C(=O)NC2C3CC4CC(C3)CC2C4)c2ccc(OC)cc2)cc1 (stereo not given)	> 100 µM (inactive)

Alright, here's another compound for you.
For the compound shown here, COC(=O)C1Cc2c([nH]c3ccccc23)C=N1 (stereo not given) , give the reported GI50. > 100 µM (inactive)
